# testedSystem: PPARg:RXRa (Homo sapiens, UniProt P37231;P19793 full;full)
# Sequence (P37231 29-505, chain 1 of 2): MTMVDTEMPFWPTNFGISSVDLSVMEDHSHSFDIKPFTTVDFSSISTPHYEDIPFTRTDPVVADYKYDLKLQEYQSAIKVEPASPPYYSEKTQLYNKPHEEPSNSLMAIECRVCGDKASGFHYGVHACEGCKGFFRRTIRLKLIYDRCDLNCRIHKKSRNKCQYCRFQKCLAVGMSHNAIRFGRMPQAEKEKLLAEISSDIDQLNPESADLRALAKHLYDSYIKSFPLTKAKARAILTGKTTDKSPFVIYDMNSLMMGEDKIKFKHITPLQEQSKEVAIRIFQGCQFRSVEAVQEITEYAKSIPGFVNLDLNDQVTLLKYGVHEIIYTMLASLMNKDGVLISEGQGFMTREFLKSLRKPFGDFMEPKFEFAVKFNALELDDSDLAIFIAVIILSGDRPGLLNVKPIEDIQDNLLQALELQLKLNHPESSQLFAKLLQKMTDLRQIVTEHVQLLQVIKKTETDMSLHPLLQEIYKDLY
# Sequence (P19793 whole entry, chain 2 of 2): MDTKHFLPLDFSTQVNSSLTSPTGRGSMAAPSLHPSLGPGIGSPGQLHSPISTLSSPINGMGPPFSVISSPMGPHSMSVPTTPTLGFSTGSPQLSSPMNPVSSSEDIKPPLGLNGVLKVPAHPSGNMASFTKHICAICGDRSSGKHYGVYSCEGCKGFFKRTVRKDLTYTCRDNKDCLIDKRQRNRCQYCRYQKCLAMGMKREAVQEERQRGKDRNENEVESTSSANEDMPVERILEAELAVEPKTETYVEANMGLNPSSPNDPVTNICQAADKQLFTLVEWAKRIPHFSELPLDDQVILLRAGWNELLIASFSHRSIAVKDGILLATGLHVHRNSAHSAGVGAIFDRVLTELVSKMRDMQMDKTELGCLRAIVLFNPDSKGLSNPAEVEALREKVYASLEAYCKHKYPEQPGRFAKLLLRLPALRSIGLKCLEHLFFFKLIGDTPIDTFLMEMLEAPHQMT
# experimentalProtocol: no ligand; PBM; 180 nM : 90 nM RXRa; PBS pH 7.4, 2% milk, 0.02% Triton X-100, 1 mM DTT, BSA, 0.4 mg/ml salmon testes DNA
# protocolConditions: tags: His kept;His cleaved; copies: 1;1; label: surface-attached array probe
measurementLabel: binding signal

Please report the recorded binding signal for NRC3_wobSeed34_DR1_G14A_o1 (dsDNA) DNA 1: GCATCGAAAGGTCAAAGGTGAGTATACCCACCCGAAGCGATTGACAGCGTAGAATGAAGG DNA 2: CCTTCATTCTACGCTGTCAATCGCTTCGGGTGGGTATACTCACCTTTGACCTTTCGATGC . 10 PBM z-score against 500 random probes

This collection of values is drawn from paper PMC6555819.
